tested on: MAP Dominic (ATCC 43545), isolated from human with Crohn's disease; type: cell-based, Mycobacterium avium subspecies paratuberculosis; conditions: 16 μg/ml; Human MAP Dominic Expt. 1; vs 3.2% DMSO control
outcome_measure: % ΔcGI (%)

molecule | outcome_measure | unit_symbol | value_reported
C[C@@H]1C[C@@H]([C@H](O)CC2CC(=O)NC(=O)C2)C(=O)[C@@H](C)C1 [Cycloheximide, cycloheximide] | % ΔcGI | % | −8
CC[C@@]1([C@@H]2O[C@@H]([C@H]3O[C@@](O)(CO)[C@H](C)C[C@@H]3C)C[C@@H]2C)CC[C@H]([C@]2(C)CC[C@]3(C[C@H](O)[C@@H](C)[C@@H]([C@@H](C)[C@@H](OC)[C@H](C)C(=O)O)O3)O2)O1 | % ΔcGI | % | −93
C=CC[C@@H]1/C=C(\C)C[C@H](C)C[C@H](OC)[C@H]2O[C@@](O)(C(=O)C(=O)N3CCCC[C@H]3C(=O)O[C@H](/C(C)=C/[C@@H]3CC[C@@H](O)[C@H](OC)C3)[C@H](C)[C@@H](O)CC1=O)[C@H](C)C[C@@H]2OC | % ΔcGI | % | 21
CO[C@H]1C[C@@H]2CC[C@@H](C)[C@@](O)(O2)C(=O)C(=O)N2CCCC[C@H]2C(=O)O[C@H]([C@H](C)C[C@@H]2CC[C@@H](O)[C@H](OC)C2)CC(=O)[C@H](C)/C=C(\C)[C@@H](O)[C@@H](OC)C(=O)[C@H](C)C[C@H](C)/C=C/C=C/C=C/1C [Rapamycin, sirolimus (rapamycin)] | % ΔcGI | % | −10
CC(C)/N=c1\cc2n(-c3ccc(Cl)cc3)c3ccccc3nc-2cc1Nc1ccc(Cl)cc1 | % ΔcGI | % | −99
O=C1NC(=O)c2ccccc21 [Phthalimide, phthalimide] | % ΔcGI | % | 0
